Each recorded value in this set is attributed to paper PMC8675869.

Reported half-life at 500 μM values are given for each entry in this list.
- assayExplanation: In vitro hepatic microsomal metabolism
- Type: in vitro ADME, BALB/c mice
- measurementParameters: BALB/c; mouse liver microsomes 0.5 mg protein/mL, 500 μM compound, NADPH, 37 °C; read-out: microsomal stability t1/2 (converted)
Enter your answer as a number in h; do not include the unit.

1. O=C(Nc1ccc([Se][Se]c2ccc(NC(=O)c3cccc4ccccc34)cc2)cc1)c1cccc2ccccc12 [2m] = 1.2

With those in mind, consider the next compound.
Prompt: So what does the record say about half-life at 500 μM for O=C(Nc1ccc([Se][Se]c2ccc(NC(=O)c3ccco3)cc2)cc1)c1ccco1 [2h] ?
Response: 1.7
